Reported values of L. amazon LV78 promastigote ROS Level, Relative fold (RF) for individual entries
Tested on: L. amazonensis LV78 promastigotes
testProtocol: Reactive oxygen species (ROS) level, DCFDA, promastigotes
Type: cell-based
setupConditions: 30 μM, 2 hr
endpointName: L. amazon LV78 promastigote ROS Level, Relative fold (RF) (fold)

{"columns": ["molecule", "unitLabel", "measured"],
 "data": [
  ["C[C@@H]1[C@H](O)[C@@H](C)/C=C/C=C/C=C/C=C/C=C/C=C/C=C/[C@H](O[C@@H]2O[C@H](C)[C@@H](O)[C@H](N)[C@@H]2O)C[C@@H]2O[C@](O)(C[C@@H](O)C[C@@H](O)[C@H](O)CC[C@@H](O)C[C@@H](O)CC(=O)O[C@H]1C)C[C@H](O)[C@H]2C(=O)O", "fold", 4.5],
  ["N=C(N)c1ccc(OCCCCCOc2ccc(C(=N)N)cc2)cc1", "fold", 1.3],
  ["O=c1cc(-c2ccc(OCCOCCN(Cc3ccccn3)Cc3ccccn3)cc2)oc2ccccc12", "fold", 2.0],
  ["CC(C)(C)OO [tert-butyl hydroperoxide]", "fold", 1.4],
  ["O=c1cc(-c2ccc(OCCOCCN(CCOCCOc3ccc(-c4cc(=O)c5ccccc5o4)cc3)Cc3ccncc3)cc2)oc2ccccc12", "fold", 1.3]
]}
